# R3 EC50 values compiled below
# experimental-target: T1, PACAP-R3 (human, UniProt P41587 24-438)
# T1 sequence (looked up): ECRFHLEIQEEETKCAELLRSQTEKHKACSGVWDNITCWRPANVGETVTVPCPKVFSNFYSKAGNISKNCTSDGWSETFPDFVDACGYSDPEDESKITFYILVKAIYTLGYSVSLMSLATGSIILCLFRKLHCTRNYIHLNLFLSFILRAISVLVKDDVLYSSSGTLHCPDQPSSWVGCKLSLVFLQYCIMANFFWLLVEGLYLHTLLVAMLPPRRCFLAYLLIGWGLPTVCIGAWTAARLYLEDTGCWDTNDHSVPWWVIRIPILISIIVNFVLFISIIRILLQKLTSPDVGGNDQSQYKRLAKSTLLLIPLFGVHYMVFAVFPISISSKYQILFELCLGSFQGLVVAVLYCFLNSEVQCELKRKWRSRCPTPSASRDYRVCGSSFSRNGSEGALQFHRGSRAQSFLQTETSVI
# assay-overview: cell-based or functional assay
Express the reported value numerically, then name its unit.

Sample answers from the record:
>  <binder>
HSDAVFTDNYTRLRKQMAAKKYLNSIKNFR [R3P137]

>  <measurement>
300 pM

$$$$
>  <binder>
HSDAVFTDNYTRLRKQMAAKKYLNSIKNKF [R3P156]

>  <measurement>
1000 pM

$$$$
>  <binder>
HSDAVFTDNYTRLRKQMAAKKYLNSIKNKG [R3P157]

>  <measurement>
300 pM

$$$$
>  <binder>
HSDAVFTDNYTRLRKQMAAKKYLNSIKNVR [R3P149]

>  <measurement>
500 pM

$$$$
>  <binder>
HSDAVFTDNYTRLRKQVAAKKYLQSILNKR [R3P92]

>  <measurement>
20 pM

$$$$

Sample HSDAVFTDNYTRLRKQMAMKKYLNSIKNKR [R3P105] ; R3 EC50 observed: 300 pM

Sample HSDAVFTDNYTRLRKQMARKKYLNSIKNKR [R3P109] ; R3 EC50 observed: 10000 pM
